- testSystem: proline utilization A (SmPutA), bifunctional PRODH-GSALDH enzyme (Sinorhizobium meliloti)
- Sequence (F7X6I3 1-1233): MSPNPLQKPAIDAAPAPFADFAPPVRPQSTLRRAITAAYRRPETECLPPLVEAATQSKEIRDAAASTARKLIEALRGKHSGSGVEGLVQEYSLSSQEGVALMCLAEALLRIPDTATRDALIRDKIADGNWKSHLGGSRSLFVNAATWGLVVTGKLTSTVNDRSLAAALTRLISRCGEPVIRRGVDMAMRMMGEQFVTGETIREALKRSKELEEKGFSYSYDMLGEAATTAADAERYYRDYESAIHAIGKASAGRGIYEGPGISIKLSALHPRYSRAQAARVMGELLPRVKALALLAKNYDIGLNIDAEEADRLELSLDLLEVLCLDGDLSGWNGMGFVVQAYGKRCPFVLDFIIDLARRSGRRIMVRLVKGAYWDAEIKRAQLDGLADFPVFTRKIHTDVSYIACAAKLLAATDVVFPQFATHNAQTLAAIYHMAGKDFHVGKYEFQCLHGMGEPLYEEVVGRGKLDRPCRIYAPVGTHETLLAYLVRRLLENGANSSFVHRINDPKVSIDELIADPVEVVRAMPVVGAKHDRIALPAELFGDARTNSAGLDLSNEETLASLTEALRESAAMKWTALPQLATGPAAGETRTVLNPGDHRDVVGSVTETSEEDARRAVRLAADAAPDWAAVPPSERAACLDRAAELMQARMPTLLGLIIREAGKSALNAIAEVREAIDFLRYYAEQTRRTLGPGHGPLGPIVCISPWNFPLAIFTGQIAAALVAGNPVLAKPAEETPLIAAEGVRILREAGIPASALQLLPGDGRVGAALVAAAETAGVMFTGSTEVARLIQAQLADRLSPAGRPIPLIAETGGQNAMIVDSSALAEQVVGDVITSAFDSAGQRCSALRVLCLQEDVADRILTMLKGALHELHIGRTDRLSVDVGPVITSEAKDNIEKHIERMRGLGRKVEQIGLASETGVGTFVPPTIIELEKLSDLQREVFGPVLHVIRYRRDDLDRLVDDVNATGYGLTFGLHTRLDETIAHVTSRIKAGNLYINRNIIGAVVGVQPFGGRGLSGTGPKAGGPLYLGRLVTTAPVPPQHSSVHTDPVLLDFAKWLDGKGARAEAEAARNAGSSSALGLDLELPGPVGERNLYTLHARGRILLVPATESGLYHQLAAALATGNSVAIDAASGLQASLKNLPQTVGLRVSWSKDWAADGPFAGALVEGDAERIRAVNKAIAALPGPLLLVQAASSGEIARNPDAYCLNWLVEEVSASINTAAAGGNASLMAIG
- assayRemarks: X-ray crystal structures, noncovalent in the dark

# structure, IC50, µM
data = [
    ("O=C(O)C1SCCS1", 22.4),
]
